study.system: Histone-lysine N-methyltransferase EHMT2 (Homo sapiens)
experimental.details: qHTS Assay for Inhibitors of Histone Lysine Methyltransferase G9a; further: nearly all actives have a fitted effect of over 75% in size; on activity, negative = inhibition: on the % scale 0 is the no-effect control and ±100 the full control effect
condition: G9a H3K9 monomethylation, AlphaScreen, 2 h; series mostly up to 59 µM
About 31,000 (8.9%) of roughly 350,000 compounds were called active. Roughly 15% stayed inconclusive and do not appear here. For the sample, actives were picked, then their nearest neighbours and some compounds at random.
measured.parameter: activity, negative = inhibition

CC1(C)O[C@@H]2[C@H](O1)[C@@H](CO)O[C@H]2n1c(N2CCCCC2)nc2c(N)ncnc21 : 9.14% [at 0.501 µM] (inactive)
O=C(OCC1OC(Oc2ccc(O)cc2)C(O)C(O)C1O)c1ccccc1 (stereo not given) : 2.48% [at 12.7 µM] (inactive)
Cc1cccc(NC(=O)Cc2ccc(Br)cc2)n1 : 12.1% [at 0.501 µM] (inactive)
Cc1ccc(CNC(=O)CC(NC(=O)c2ccccc2)c2ccccc2)cc1 (stereo not given) : 12.4% [at 12.7 µM] (inactive)
C[C@@H](NC(=O)c1nc[nH]c1C(=O)N1CCN(C(=O)OC(C)(C)C)CC1)c1ccccc1 : 4.62% [at 2.33 µM] (inactive)

Lab note: each molecule below needs its activity, negative = inhibition filled in.
1. CC(C)(C)OC(=O)NCCCCCNC(=O)c1nc[nH]c1C(=O)NCc1ccccc1
2. Cc1cc(OCCCCOc2ccc(C#N)cc2)ccc1[N+](=O)[O-]
3. CCN(CC)C(=O)C(=O)c1cn(CC(=O)NCc2ccc3c(c2)OCO3)c2ccccc12
4. CCc1ccc(-c2nn(-c3ccccc3C)cc2C(=O)N2CCN(C3CCS(=O)(=O)C3)CC2)cc1 (stereo not given)
5. O=C(NCCN1CCOCC1)c1cccc(S(=O)(=O)Nc2ccc(F)cc2)c1
6. O=C1Nc2c(Br)cc(Br)cc2C1(O)N1CCOCC1 (stereo not given)
7. CCOCc1c(C(=O)N2CCN(Cc3ccc(Br)s3)CC2)oc2ccccc12

## Output
1: 24.5% [at 2.33 µM] (inactive); 2: 30.7% [at 12.7 µM] (inactive); 3: 27.8% [at 12.7 µM] (inactive); 4: 5.96% [at 12.7 µM] (inactive); 5: 8.8% [at 12.7 µM] (inactive); 6: 5.27% [at 12.7 µM] (inactive); 7: 16.1% [at 2.33 µM] (inactive)

# return activity, negative = inhibition for each item in the list
1. COc1ccc2cc(C3=CC(=O)C[C@H](c4ccc5c(c4)OCO5)C3)ccc2c1
2. CCCCC/C=C/C1=CC(=O)C[C@H](c2ccc(Cl)cc2)C1
3. COc1ccc(NC(=O)C(=O)NCC(c2ccco2)N2CCc3ccccc3C2)cc1 (stereo not given)
4. CC(C)(C)OC(=O)NCCCCCNC(=O)c1[nH]cnc1C(=O)Nc1nccs1
5. Cc1ccc(C)c(OCC(=O)NNC(=O)C2CCC2)c1

## Output
7.57% [at 0.501 µM] (inactive)
8.79% [at 0.501 µM] (inactive)
24.1% [at 2.33 µM] (inactive)
3.9% [at 0.501 µM] (inactive)
-2.65% [at 12.7 µM] (inactive)

Batch lookup, activity, negative = inhibition per entry.
1. CCCCOc1ccc(-c2ncc(C(=O)OCC)c(N)n2)cc1
2. Cc1ccc(CNC(=O)c2cc(-c3ccccc3C)n(CC3CC(c4cccc([N+](=O)[O-])c4)=NO3)n2)cc1 (stereo not given)

## Output
1. 6.88% [at 12.7 µM] (inactive)
2. -36.4% [at 2.33 µM] (inactive)

Could you report activity, negative = inhibition for every entry in the following list?
1. CC1CN(C(=O)CN2C(=O)NC(C)(c3ccccc3)C2=O)CC(C)O1 (stereo not given)
2. S=C(Nc1cccnc1)Nc1ccccn1
3. CCn1c(COc2ccc(OC)cc2)nnc1SCC(=O)Nc1cc(OC)ccc1OC

## Output
1. 5.65% [at 2.33 µM] (inactive)
2. -8.13% [at 2.33 µM] (inactive)
3. 7.11% [at 12.7 µM] (inactive)

* * *

study.system: Histone-lysine N-methyltransferase EHMT2 (Homo sapiens) (UniProt Q96KQ7)
Sequence (Q96KQ7 913-1193 limits assumed): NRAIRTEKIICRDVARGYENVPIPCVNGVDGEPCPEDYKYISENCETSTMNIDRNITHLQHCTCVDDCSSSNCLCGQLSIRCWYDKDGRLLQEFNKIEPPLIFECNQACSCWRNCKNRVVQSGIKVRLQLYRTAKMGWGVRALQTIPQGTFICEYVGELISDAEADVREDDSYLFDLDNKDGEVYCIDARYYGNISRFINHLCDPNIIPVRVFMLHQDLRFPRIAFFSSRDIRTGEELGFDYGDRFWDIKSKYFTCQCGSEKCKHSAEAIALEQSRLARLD
experimental.details: qHTS Assay for Inhibitors of Histone Lysine Methyltransferase G9a; further: nearly all actives have a fitted effect of over 75% in size; further: potency means the concentration at half of the fitted maximal effect
condition: G9a H3K9 monomethylation, AlphaScreen, 2 h; series mostly up to 59 µM
The campaign covered roughly 350,000 compounds. About 31,000 (8.9%) were called active. About 15% were inconclusive and are not listed. The full list was thinned out, with actives kept by preference.
measured.parameter: Potency

Cc1ccc(O)c(NC(=O)c2cc(-c3ccc(F)cc3)no2)c1 : 8.91 µM (active)
COc1cc(OC)cc(C(=O)Nc2c(C(=O)Nc3ccc(F)cc3)oc3ccccc23)c1 : inactive
COc1ccc(/C=C2\SC(=O)N(CCC(=O)NC3CCS(=O)(=O)C3)C2=O)cc1 (stereo unspecified) : inactive
CS(=O)(=O)c1ccc(Cl)c(NC(=O)COC(=O)c2cccc(S(=O)(=O)N3CCCC3)c2)c1 : 56.2 µM (active)
S=C(NN=C1CCN(Cc2ccccc2)CC1)NC1CCCCC1 : 50.1 µM (active)
CCOc1ccc(NC(=O)c2cnn(-c3ccccc3)c2-n2cccc2)cc1 : inactive

Need Potency for each of these compounds.
1. c1coc(-c2nc3nc4ccccc4n3nc2-c2ccco2)c1
2. COc1ccccc1CNC(=O)CCn1c(=O)c2ccccc2n(CC(=O)Nc2cccc(Cl)c2)c1=O

## Output
10 µM (active)
inactive

* * *

study.system: Histone-lysine N-methyltransferase EHMT2 (Homo sapiens) (UniProt Q96KQ7)
experimental.details: qHTS Assay for Inhibitors of Histone Lysine Methyltransferase G9a; further: nearly all actives have a fitted effect of over 75% in size
condition: G9a H3K9 monomethylation, AlphaScreen, 2 h; series mostly up to 59 µM
About 31,000 (8.9%) of roughly 350,000 compounds were called active. About 15% were inconclusive and are not listed. The call rests on the fitted dose curve; in most records, active means well fitted inhibition curve with a large enough effect; inconclusive means small, poorly fitted or top-dose-only effect; inactive means no such curve, though single readings can be large or run the other way. The list comes from a sample in which actives are over-represented; it also holds close analogues and randomly drawn compounds.
// one of T = active, F = inactive, no free text

Examples with answers:
O=C(COc1ccccc1F)OCc1cc(=O)n2nc(C3CCCCC3)sc2n1 : F
O=C(NCCc1ccccc1)c1ccc2c(c1)N(Cc1ccc(F)cc1)C(=O)c1ccccc1S2(=O)=O : F
CC(C)c1ccc(NC(=O)C2CCN(c3nc(-c4ccc(C(C)C)cc4)no3)CC2)cc1 : F
O=S(=O)(Nc1ccc(-n2cnnn2)cc1)c1ccc(Cl)cc1 : F
Cc1cn(C)c(CC(=O)NCc2ccc(Cl)cc2)c1C(=O)O : F

## Input Recorded call for "O=C(N/N=C/c1ccc(OCc2ccccc2)cc1)c1ccc(O)cc1" ?
## Output F

## Input So what was the verdict on "O=C(CSc1nc(Nc2ccc(F)c(F)c2)c2ccccc2n1)c1ccc(Cl)cc1" in this test?
## Output F

* * *

study.system: Histone-lysine N-methyltransferase EHMT2 (Homo sapiens)
experimental.details: qHTS Assay for Inhibitors of Histone Lysine Methyltransferase G9a; further: nearly all actives have a fitted effect of over 75% in size; on activity, negative = inhibition: on the % scale 0 is the no-effect control and ±100 the full control effect
condition: G9a H3K9 monomethylation, AlphaScreen, 2 h; series mostly up to 59 µM
The whole screen tested about 350,000 compounds, of which about 31,000 (8.9%) were called active. Not shown: some 15% with an inconclusive outcome. Only a selection was taken, and actives are over-represented in it overall.
measured.parameter: activity, negative = inhibition

CCOC(=O)N1CCN(S(=O)(=O)c2ccc3c(c2)C(C)C(=O)N3)CC1 (stereo not given) : 14.1% [at 12.7 µM] (inactive)

Could I get activity, negative = inhibition for every one of these entries?
1. COC(=O)C1=CO[C@@H](O[C@@H]2O[C@H](CO)[C@@H](O)[C@H](O)[C@H]2O)C2C1C[C@H](O)[C@@H]2C (stereo not given in full)
2. CCOc1ccc(C(=O)CCC(=O)Nc2ccncc2)cc1
3. O=C(CSc1nc2[nH]c(=O)[nH]c(=O)c2s1)Nc1cccc(F)c1
4. CCOc1ccc(CCNC(=O)COC(=O)CCS(=O)(=O)c2ccc(C)cc2)cc1OCC
5. COc1ccc2sc(-c3ccc(N(C)C)cc3)c(C#CCO)c2c1

## Output
1. 1.46% [at 2.33 µM] (inactive)
2. -14% [at 12.7 µM] (inactive)
3. 24.5% [at 12.7 µM] (inactive)
4. -3.67% [at 0.501 µM] (inactive)
5. 8.02% [at 0.501 µM] (inactive)

// for each molecule in input: emit activity, negative = inhibition
1. CCOc1ccc(N/C=C/C(=O)c2cc(OC)c(OC)c(OC)c2)cc1
2. O=S(=O)(c1ccc(SCc2ccc(Br)cc2)nc1)N1CCOCC1
3. CCc1ccccc1NC(=O)CN(C)C(=O)c1cc(C2CC2)nn1-c1ccccc1
4. Cc1cccc(-c2nc(Nc3ccc(O)cc3)c3ccccc3n2)c1
5. COCCN(Cc1ccccc1)C(=O)Cc1ccc(S(=O)(=O)N2CCOCC2)s1
6. CN(CCc1ccccn1)C(=O)c1ccc(OC2CCN(Cc3ccccn3)CC2)cc1
7. O=S(=O)(NCCc1ccccn1)c1cc(Cl)cc(Cl)c1O

## Output
-10.6% [at 0.501 µM] (inactive)
-2.71% [at 12.7 µM] (inactive)
14.2% [at 12.7 µM] (inactive)
9.03% [at 12.7 µM] (inactive)
-3.78% [at 12.7 µM] (inactive)
24.7% [at 0.501 µM] (inactive)
22.1% [at 2.33 µM] (inactive)

Batch lookup, activity, negative = inhibition per entry.
1. COC(=O)Cc1ccc(OC(=O)C2CCN(S(=O)(=O)c3ccc(OC)c(OC)c3)CC2)cc1
2. CC1(c2ccccc2)NC(=O)N(CC(=O)Nc2cc(Cl)ccc2N2CCOCC2)C1=O (stereo not given)
3. O=C(COC(=O)Cc1ccccc1F)NCCc1ccccc1
4. Cc1ccc(OCCC(=O)Nc2ccc(S(=O)(=O)Nc3nccs3)cc2)cc1
5. CCOc1ccc(C2C(C(=O)O)c3ccccc3C(=O)N2CCN2CCOCC2)cc1 (stereo not given)
6. O=C(Nc1cccc(C(=O)NC2CC2)c1)c1ccc(F)c(S(=O)(=O)N2CCOCC2)c1
7. O=C(CSc1nnc(-c2cccs2)n1-c1ccccc1)NCc1ccco1

## Output
["13.8% [at 12.7 µM] (inactive)", "22.3% [at 0.501 µM] (inactive)", "-6.48% [at 2.33 µM] (inactive)", "15% [at 12.7 µM] (inactive)", "1.66% [at 12.7 µM] (inactive)", "11.8% [at 0.501 µM] (inactive)", "-5.59% [at 12.7 µM] (inactive)"]
